drug sensitivity score listing for selected compounds.
System: MDA-MB-453
Assay Details: drug sensitivity score (DSS), in combination with BLU9931 (DSS (weighted AUC score)); higher = more sensitive (stronger viability decrease); extreme values may be limits of the assay
Condition Info: BLU9931 100 nM; 72 h

| Compound | drug sensitivity score |
| --- | --- |
| COc1cc2ncnc(Oc3cccc(NC(=O)Nc4cc(C(C)(C)C(F)(F)F)on4)c3)c2cc1OC | 3.2 |
| O=C(CCCCCCC(=O)Nc1ccc([C@H]2O[C@@H](CSc3nc(-c4ccccc4)c(-c4ccccc4)o3)C[C@@H](c3ccc(CO)cc3)O2)cc1)NO [Tubacin] | 1.7 |
| Cc1c(Cn2c(C)nc3c(C(=O)O)cc(N4CCOCC4)cc32)cccc1C(F)(F)F | 0 |
| CN[C@@H](C)C(=O)N[C@H](C(=O)N1CCC[C@H]1c1nc(C(=O)c2ccc(F)cc2)cs1)C1CCCCC1 [NVP-LCL161] | 8.1 |
| COCC1(CO)C(=O)C2CCN1CC2 (stereo not drawn) [APR-246] | 0.4 |

Please look at O=C(/C=C/c1cccnc1)NCCCCC1CCN(C(=O)c2ccccc2)CC1 [Daporinad] and tell me its recorded drug sensitivity score on MDA-MB-453.
28.6

Please look at Cc1cc(C(C)Nc2ccccc2)c2nc(N3CCOCC3)cc(=O)n2c1 (stereo not drawn) [TGX-221] and tell me its recorded drug sensitivity score on MDA-MB-453.
3.2

Please look at CN(C)C/C=C/C(=O)Nc1cc2c(Nc3ccc(F)c(Cl)c3)ncnc2cc1O[C@H]1CCOC1 [Afatinib] and tell me its recorded drug sensitivity score on MDA-MB-453.
10.1

---

drug sensitivity score listing for selected compounds.
Test system: MDA-MB-453
Assay Details: drug sensitivity score (DSS), in combination with BLU9931 (DSS (weighted AUC score)); higher = more sensitive (stronger viability decrease); extreme values may be limits of the assay
Condition Info: BLU9931 100 nM; 72 h
Kindly provide the number alone.

| Compound | drug sensitivity score |
| --- | --- |
| Cc1cc(Nc2nc(N[C@@H](C)c3ncc(F)cn3)ncc2Cl)[nH]n1 | 0 |
| O=C(Nc1cc(Cl)cc2c1[nH]c1cnccc12)c1cccnc1 | 0.3 |
| CN(C)C(=O)c1ccc(S(=O)(=O)c2ccc(NC(=O)[C@@](C)(O)C(F)(F)F)c(Cl)c2)cc1 | 0.2 |
| CO[C@H]1C[C@@H]2CC[C@@H](C)[C@@](O)(O2)C(=O)C(=O)N2CCCC[C@H]2C(=O)O[C@H]([C@H](C)C[C@@H]2CC[C@@H](OP(C)(C)=O)[C@H](OC)C2)CC(=O)[C@H](C)/C=C(\C)[C@@H](O)[C@@H](OC)C(=O)[C@H](C)C[C@H](C)/C=C/C=C/C=C/1C | 14.7 |
| CN(C(=O)c1ccc(F)cc1C(F)(F)F)C1CCN(c2nnc(-c3ccnn3C)c3ccccc23)CC1 | 1.1 |
| COc1cc(CCc2cc(NC(=O)c3ccc(N4CC(C)NC(C)C4)cc3)n[nH]2)cc(OC)c1 (configuration not stated) | 0 |

// below: drug sensitivity score requested for another compound
Answer with the recorded drug sensitivity score for the compound listed here: COCC[n+]1c2c(n(Cc3cnccn3)c1C)C(=O)c1ccccc1C2=O [Sepantronium bromide]
33.2

---

System: MDA-MB-453
Assay Details: drug sensitivity score (DSS), in combination with BLU9931 (DSS (weighted AUC score)); higher = more sensitive (stronger viability decrease); extreme values may be limits of the assay
Condition Info: BLU9931 100 nM; 72 h
Record 1 (yes) whenever drug sensitivity score is at 1 or higher; record 0 (no) when lower.

Look over these answered cases.
| Molecule | Group Label |
| --- | --- |
| O=c1[nH]c(=O)n([C@H]2C[C@H](O)[C@@H](CO)O2)cc1C(F)(F)F | 1 (yes) |
| O=C(NOCCO)c1ccc2cncn2c1Nc1ccc(I)cc1F | 0 (no) |
| COc1nc(N)nc2c1ncn2[C@@H]1O[C@H](CO)[C@@H](O)[C@@H]1O | 1 (yes) |

I'd appreciate it if you could say whether Cc1cc(Nc2ncnc3ccc(NC4=NC(C)(C)CO4)cc23)ccc1Oc1ccn2ncnc2c1 has drug sensitivity score at least equal to 1.
0 (no)

I'd appreciate it if you could say whether Cc1cnc(NC(=O)Nc2cc(Br)c(C)cc2OC[C@@H]2CNCCO2)cn1 has drug sensitivity score at least equal to 1.
0 (no)

I'd appreciate it if you could say whether CC[C@H](Nc1ncnc2[nH]cnc12)c1nc2cccc(F)c2c(=O)n1-c1ccccc1 has drug sensitivity score at least equal to 1.
1 (yes)

I'd appreciate it if you could say whether O=C(O)CC[C@H]1CC[C@@](c2cc(F)ccc2F)(S(=O)(=O)c2ccc(Cl)cc2)CC1 has drug sensitivity score at least equal to 1.
0 (no)

I'd appreciate it if you could say whether Cc1sc2c(c1C)C(c1ccc(Cl)cc1)=N[C@@H](CC(=O)NCCCCNC(=O)COc1cccc3c1C(=O)N(C1CCC(=O)NC1=O)C3=O)c1nnc(C)n1-2 (stereo partly specified) has drug sensitivity score at least equal to 1.
1 (yes)

I'd appreciate it if you could say whether NS(=O)(=O)NCCNc1nonc1/C(=N/O)Nc1ccc(F)c(Br)c1 has drug sensitivity score at least equal to 1.
0 (no)

---

System: MDA-MB-453
Assay Details: drug sensitivity score (DSS), in combination with BLU9931 (DSS (weighted AUC score)); higher = more sensitive (stronger viability decrease); extreme values may be limits of the assay
Condition Info: BLU9931 100 nM; 72 h
drug sensitivity score listing for selected molecules.
Kindly provide the number alone.

| Molecule | drug sensitivity score |
| --- | --- |
| CNC(=O)c1ccc2cc([C@@]3(O)CCn4cncc43)ccc2c1 | 0 |
| CNS(=O)(=O)Nc1nccc(Cc2c(C)c3ccc(Oc4ncccn4)cc3oc2=O)c1F | 0.2 |

Answer with the recorded drug sensitivity score for the molecule listed here: CN(Cc1cnc2nc(N)nc(N)c2n1)c1ccc(C(=O)N[C@@H](CCC(=O)O)C(=O)O)cc1 [Methotrexate]
0

Answer with the recorded drug sensitivity score for the molecule listed here: O=S(=O)(c1cccc2c(O)nccc12)N1CCCNCC1 [Hydroxyfasudil]
0.2

Answer with the recorded drug sensitivity score for the molecule listed here: Cc1ccc(C(=O)Nc2ccc(CN3CCN(C)CC3)c(C(F)(F)F)c2)cc1C#Cc1cnc2cccnn12
1.7

Answer with the recorded drug sensitivity score for the molecule listed here: Cc1[nH]nc(C(F)(F)F)c1Cc1sc2c(c1C(=O)N1C[C@](C)(O)CO1)c(=O)n(C)c(=O)n2C(C)C
0

Answer with the recorded drug sensitivity score for the molecule listed here: O=c1[nH]c(=O)n([C@H]2C[C@H](O)[C@@H](CO)O2)cc1F
2

Answer with the recorded drug sensitivity score for the molecule listed here: CC[C@H](CO)Nc1nc(NCc2ccccc2)c2ncn(C(C)C)c2n1
0.2

---

System: MDA-MB-453
Assay Details: drug sensitivity score (DSS), in combination with BLU9931 (DSS (weighted AUC score)); higher = more sensitive (stronger viability decrease); extreme values may be limits of the assay
Condition Info: BLU9931 100 nM; 72 h
Property: drug sensitivity score

| Compound | Study System | drug sensitivity score |
| --- | --- | --- |
| CC(C)(C)c1cnc(CSc2cnc(NC(=O)C3CCNCC3)s2)o1 [SNS-032] | MDA-MB-453 | 19.1 |
| CC1(C)NC(=O)N(c2ccc([N+](=O)[O-])c(C(F)(F)F)c2)C1=O [Nilutamide] | MDA-MB-453 | 0 |
| CCNCCS(=O)(=O)NC[C@@]1(c2ccccc2)SC(NC(=O)C(C)(C)C)=NN1C(=O)C(C)(C)C [Litronesib] | MDA-MB-453 | 13 |

Answer with the recorded drug sensitivity score for the compound listed here: COc1ccc(CCc2nc3cc(-c4c(C)noc4C)ccc3n2C[C@H](C)N2CCOCC2)cc1Cl [SGC-CBP30]
9.1

Answer with the recorded drug sensitivity score for the compound listed here: NCC(=O)Nc1ccc(-n2nc(C(F)(F)F)cc2-c2ccc3c(ccc4ccccc43)c2)cc1
0

Answer with the recorded drug sensitivity score for the compound listed here: CC#CC(=O)N1CC[C@@H](n2c(=O)n(-c3ccc(Oc4ccccc4)cc3)c3c(N)ncnc32)C1 [Tirabrutinib]
6.3

Answer with the recorded drug sensitivity score for the compound listed here: NC(=O)c1cccc2cn(-c3ccc([C@@H]4CCCNC4)cc3)nc12 [Niraparib]
1.3

Answer with the recorded drug sensitivity score for the compound listed here: CC(C)N(C[C@H]1O[C@@H](n2cnc3c(N)ncnc32)[C@H](O)[C@@H]1O)[C@H]1C[C@@H](CCc2nc3cc(C(C)(C)C)ccc3[nH]2)C1 [Pinometostat]
0

Answer with the recorded drug sensitivity score for the compound listed here: CN(C)C(=O)c1cc2cnc(Nc3ccc(N4CCNCC4)cn3)nc2n1C1CCCC1 [Ribociclib]
3.6

Answer with the recorded drug sensitivity score for the compound listed here: COc1cc(N2CCC(N3CCN(C)CC3)CC2)ccc1Nc1ncnc(Nc2ccccc2S(=O)(=O)C(C)C)n1 [ASP3026]
0.3

Answer with the recorded drug sensitivity score for the compound listed here: C=CCc1cccc(/C=N/NC(=O)CN2CCN(Cc3ccccc3)CC2)c1O [PAC-1]
4.9

Answer with the recorded drug sensitivity score for the compound listed here: COc1cccc2c1C(=O)c1c(O)c3c(c(O)c1C2=O)C[C@@](O)(C(C)=O)C[C@@H]3O[C@H]1C[C@H](N)[C@H](O)[C@H](C)O1 [Daunorubicin]
5.4

Answer with the recorded drug sensitivity score for the compound listed here: CCCS(=O)(=O)Nc1ccc(F)c(C(=O)c2c[nH]c3ncc(-c4ccc(Cl)cc4)cc23)c1F [Vemurafenib]
0

Answer with the recorded drug sensitivity score for the compound listed here: O=C(Nc1c[nH]nc1-c1nc2ccc(CN3CCOCC3)cc2[nH]1)NC1CC1 [AT9283]
2.3

Answer with the recorded drug sensitivity score for the compound listed here: CCC1(c2ccc(N)cc2)CCC(=O)NC1=O (stereo not drawn) [Aminoglutethimide]
1.3

Answer with the recorded drug sensitivity score for the compound listed here: COc1cc(N2CCN(C)CC2)ccc1Nc1nccc(-c2cn(C)c3cnccc23)n1 [AZ191]
1.2
